# experimental-target: human ACKR3 (Homo sapiens, UniProt P25106)
# Sequence (P25106 whole entry): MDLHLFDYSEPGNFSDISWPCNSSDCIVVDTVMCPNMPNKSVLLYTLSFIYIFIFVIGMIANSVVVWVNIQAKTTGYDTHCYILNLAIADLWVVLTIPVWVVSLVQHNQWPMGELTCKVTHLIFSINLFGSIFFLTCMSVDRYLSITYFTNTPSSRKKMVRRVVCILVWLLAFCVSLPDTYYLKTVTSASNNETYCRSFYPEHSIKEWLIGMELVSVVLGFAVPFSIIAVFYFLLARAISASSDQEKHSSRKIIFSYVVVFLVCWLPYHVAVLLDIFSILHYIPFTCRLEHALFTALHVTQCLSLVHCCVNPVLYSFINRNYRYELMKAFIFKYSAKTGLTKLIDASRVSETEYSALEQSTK
# Sequence (P49407 whole entry partner): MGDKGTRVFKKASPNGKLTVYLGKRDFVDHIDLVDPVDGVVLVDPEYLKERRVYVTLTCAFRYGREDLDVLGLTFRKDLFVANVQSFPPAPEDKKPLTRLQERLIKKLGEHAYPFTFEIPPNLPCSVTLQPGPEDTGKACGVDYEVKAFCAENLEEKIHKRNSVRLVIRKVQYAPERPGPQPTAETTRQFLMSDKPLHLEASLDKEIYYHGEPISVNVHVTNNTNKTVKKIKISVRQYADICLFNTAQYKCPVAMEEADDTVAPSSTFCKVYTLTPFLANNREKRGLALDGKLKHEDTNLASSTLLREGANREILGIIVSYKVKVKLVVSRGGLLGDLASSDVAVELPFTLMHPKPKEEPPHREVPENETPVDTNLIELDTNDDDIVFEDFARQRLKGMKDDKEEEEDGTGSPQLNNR
# assay-summary: ACKR3 β-Arrestin recruitment assay (NanoLuc complementation, NanoBiT) in HEK293T cells
# applied-conditions: ACKR3; HEK293T cells; average value of three independent experiments
Threshold check on EC50: strictly below 3000 nM is Satisfied; on or above 3000 nM is Not satisfied.

Some solved cases for reference:
- compound: "CN(CCCNC(=O)c1ccc(-c2ccccc2)s1)Cc1ccc(F)cc1 [Compound 20]"
  label: "Satisfied"
- compound: "CC(C)(C)OC(=O)N1CCCN(C(=O)c2csc(-c3ccccc3)n2)CC1 [Compound 45]"
  label: "Not satisfied"
- compound: "Cc1ccc(-c2ccc(C(=O)NCCCN(C)Cc3ccccc3)s2)cc1 [Compound 9]"
  label: "Satisfied"
- compound: "O=C(NCCCN(CCc1ccccc1)Cc1ccccc1)c1ccc(-c2ccccc2)s1 [Compound 29]"
  label: "Satisfied"
- compound: "O=C(NCCCN(CCCc1ccccc1)Cc1ccccc1)c1ccc(-c2ccccc2)s1 [Compound 30]"
  label: "Satisfied"
- compound: "CN(CCCNC(=O)c1ccc(-c2cccc(F)c2)s1)Cc1ccccc1 [Compound 16]"
  label: "Satisfied"

Lab note: next compound to report on.
**Q:** Check if EC50 falls below 3000 nM for O=C(c1ccc(-c2ccccc2)s1)N1CCCN(Cc2ccccc2)CC1 [Compound 40] .
**A:** Satisfied

* * *

solubility for assorted compounds
# assay-summary: Kinetic solubility assay
# Assay type: physicochemical
# applied-conditions: PBS buffer with 1% DMSO, 4 °C, aqueous buffer, kinetic from dmso stock; 1% DMSO, 99% PBS buffer (pH 7.4); average of three independent experiments ± SEM
# value in µM; strip the unit string

- input-smiles: "CCN(CCCNC(=O)c1ccc(-c2ccccc2)s1)Cc1ccccc1"
  endpoint-unit: "µM"
  solubility: 75

We now examine a further compound.
**Q:** solubility for CCCCN(CCCNC(=O)c1ccc(-c2ccccc2)s1)Cc1ccccc1 ?
**A:** 28

* * *

# assay-summary: Kinetic solubility assay
# Assay type: physicochemical
# applied-conditions: PBS buffer with 1% DMSO, 4 °C, aqueous buffer, kinetic from dmso stock; 1% DMSO, 99% PBS buffer (pH 7.4)
solubility for assorted compounds
# value in µg/mL; strip the unit string

- input-smiles: "CCCCN(CCCNC(=O)c1ccc(-c2ccccc2)s1)Cc1ccccc1"
  observed-property: "solubility"
  endpoint-unit: "µg/mL"
  recorded-value: 10

We now examine a further compound.
**Q:** solubility for CCN(CCCNC(=O)c1ccc(-c2ccccc2)s1)Cc1ccccc1 ?
**A:** 30

* * *

# experimental-target: human ACKR3 (Homo sapiens)
# assay-summary: ACKR3 β-Arrestin recruitment assay (NanoLuc complementation, NanoBiT) in HEK293T cells
# applied-conditions: ACKR3; HEK293T cells; average value of three independent experiments
pEC50 for assorted molecules
# reply with the number alone; pEC50 is -log10 of concentration in mol/L

**Q:** Checklist item: pEC50 tested on human ACKR3 (Homo sapiens), entry CN(CCCNC(=O)c1ccc(-c2ccc(C(C)(C)C)cc2)s1)Cc1ccccc1 , value?
**A:** 4.99

**Q:** Further, for CN(CCCNC(=O)CSc1ccccc1)Cc1ccccc1 ?
**A:** 3.09

* * *

# experimental-target: human ACKR3 (Homo sapiens)
# assay-summary: ACKR3 β-Arrestin recruitment assay (NanoLuc complementation, NanoBiT) in HEK293T cells
# applied-conditions: ACKR3; HEK293T cells; average value of three independent experiments
observed-property: EC50 (nM)
# value in nM; strip the unit string

Sample answers from the record:
- compound: "CCN(CCCNC(=O)c1ccc(-c2ccccc2)s1)Cc1ccccc1"
  experimental-target: "human ACKR3 (Homo sapiens)"
  endpoint-unit: "nM"
  EC50: 111
- compound: "CC(C)(C)OC(=O)N1CCCC(CNC(=O)c2ccc(-c3ccccc3)s2)C1 (stereo not shown)"
  experimental-target: "human ACKR3 (Homo sapiens)"
  endpoint-unit: "nM"
  EC50: 4680
- compound: "CC(C)N(CCCNC(=O)c1ccc(-c2ccccc2)s1)Cc1ccccc1"
  experimental-target: "human ACKR3 (Homo sapiens)"
  endpoint-unit: "nM"
  EC50: 709

We now examine a further compound.
**Q:** EC50 for COc1ccc(CN(C)CCCNC(=O)c2ccc(-c3ccccc3)s2)cc1 ?
**A:** 930
